Reference source for all entries: patent US20250346585A1

Target: Human complement C1s enzyme (Homo sapiens (Human))
Assay: Human C1s enzyme assay
Type: biochemical
Details: Human C1s enzyme assay of Example 3; read-out: IC50 (Stars)
measurement kind: IC50

Look at this molecule and give its reported IC50. Cc1cc(C(=O)NCC(=O)N2CC3(C[C@H]2C(=O)NCc2cc(C(=N)N)cs2)OCCO3)ccc1-c1ccccc1
< 100 nM

Also COC[C@H]1C[C@@H](C(=O)N[C@H](C)c2cc(C(=N)N)cs2)N(C(=O)CNC(=O)c2ccc(Oc3ccc(F)cc3)cc2)C1 (relative stereo) ?
< 100 nM

Also C[C@@H](NC(=O)[C@@H]1C[C@](F)(CF)CN1C(=O)CNC(=O)c1ccc2c(c1)-c1ccccc1C2(C)C)c1cc(C(=N)N)cs1 ?
< 100 nM

Also N=C(N)c1csc(CNC(=O)[C@@H]2CC3(CN2C(=O)CNC(=O)c2ccc(-c4cnc5[nH]ccc5c4)cc2)OCCO3)c1 ?
< 100 nM

Also C[C@@H](NC(=O)[C@@H]1CC2(CN1C(=O)CNC(=O)c1ccc(-c3ccc(F)cc3)c(F)c1)OCCO2)c1cc(C(=N)N)cs1 ?
< 100 nM

Also Cc1ccc(-c2cccc(C(=O)NCC(=O)N3CC4(C[C@H]3C(=O)N[C@H](C)c3cc(C(=N)N)cs3)OCCO4)c2)cc1 ?
< 100 nM

Also CC1(C)c2ccccc2-c2cc(C(=O)NCC(=O)N3CC4(C[C@H]3C(=O)NCc3cc(C(=N)N)cs3)OCCO4)ccc21 ?
< 100 nM

Also N=C(N)c1csc(CNC(=O)[C@@H]2CC3(CN2C(=O)CNC(=O)c2ncc(-c4ccccc4)cc2F)OCCO3)c1 ?
< 100 nM

Also C[C@@]12C[C@@H]1N(C(=O)CNC(=O)c1ccc3c(c1)CCCO3)[C@H](C(=O)NCc1cc(C(=N)N)cs1)C2 ?
< 100 nM

====

IC50 values by entry
Molecular target: Human complement C1s enzyme (Homo sapiens (Human), UniProt P09871)
Sequence (P09871 438-688 limits assumed): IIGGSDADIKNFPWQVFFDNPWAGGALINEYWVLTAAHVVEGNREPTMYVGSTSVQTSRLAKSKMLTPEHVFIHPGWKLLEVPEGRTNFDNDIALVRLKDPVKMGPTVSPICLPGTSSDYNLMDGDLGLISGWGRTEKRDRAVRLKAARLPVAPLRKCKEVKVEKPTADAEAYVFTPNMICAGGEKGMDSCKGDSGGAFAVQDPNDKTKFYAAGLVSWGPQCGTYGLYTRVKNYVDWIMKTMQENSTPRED
Sequence (P09871 16-437 partner limits assumed): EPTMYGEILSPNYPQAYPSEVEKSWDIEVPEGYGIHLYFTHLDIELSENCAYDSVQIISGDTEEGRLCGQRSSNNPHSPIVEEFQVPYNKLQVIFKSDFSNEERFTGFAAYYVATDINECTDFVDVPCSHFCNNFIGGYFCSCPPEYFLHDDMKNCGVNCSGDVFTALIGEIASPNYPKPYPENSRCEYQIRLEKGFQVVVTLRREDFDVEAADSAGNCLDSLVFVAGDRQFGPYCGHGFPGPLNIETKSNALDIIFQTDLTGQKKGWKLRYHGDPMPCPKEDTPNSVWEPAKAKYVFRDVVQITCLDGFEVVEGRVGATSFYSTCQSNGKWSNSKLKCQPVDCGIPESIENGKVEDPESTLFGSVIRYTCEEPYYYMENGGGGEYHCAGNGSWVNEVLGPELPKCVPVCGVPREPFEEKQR
Assay: Human C1s enzyme assay
Type: biochemical
Conditions: Human C1s enzyme assay of Example 3; read-out: IC50 (Stars)

For orientation, consider the following solved cases.
chemical structure | IC50
Nc1csc(-c2csc(CNC(=O)[C@@H]3CC4(CN3C(=O)CNC(=O)c3ccc(Oc5ccc(F)cc5)cc3)OCCO4)c2)n1 | > 1 µM
C[C@@H](NC(=O)[C@@H]1C[C@@H](S(C)(=O)=O)CN1C(=O)CNC(=O)c1ccc(Oc2ccc(F)cc2)cc1)c1cc(C(=N)N)cs1 | < 0.1 µM
C[C@@H](NC(=O)[C@@H]1C[C@]2(CO)C[C@@H]2N1C(=O)CNC(=O)c1ccc(Oc2ccc(F)cc2)cc1)c1ccc(C(=N)N)s1 | < 0.1 µM
N=C(N)c1csc(CNC(=O)[C@@H]2CC3(CN2C(=O)CNC(=O)c2ccc(-c4cc5ccccc5s4)cc2)OCCO3)c1 | < 0.1 µM
C[C@@H](NC(=O)[C@@H]1C[C@@H](c2ccccc2)CN1C(=O)CNC(=O)c1ccc2c(c1)-c1ccccc1C2(F)F)c1cc(C(=N)N)cs1 | < 0.1 µM

Look at this molecule and give its reported IC50. C[C@H](O)[C@H](O)[C@@H](O)[C@@H](O)CNCC(=O)NCCOC[C@@]12C[C@@H]1N(C(=O)CNC(=O)CCCOc1ccccc1)[C@H](C(=O)N[C@H](C)c1cc(C(=N)N)cs1)C2
< 0.1 µM

Also C[C@@H](NC(=O)[C@@H]1C[C@@H](OC(F)F)CN1C(=O)CNC(=O)c1ccc(Oc2ccc(F)cc2)cc1)c1ccc(C(=N)N)s1 ?
< 0.1 µM
